Ref: PubChem BioAssay (NCI)

Tested on: KM12 colon
Test: NCI tumour cell line growth inhibition, 48 h
Property Name: TGI

Some compounds with recorded TGI:
> print(dat)
                                   compound  experimental.value
1  O=c1c2c3c(sc2n2c(-c4cc(-c5ccccc5)nn4-c4ccccc4)nnc2n1Cc1ccccc1)CCCC3            > 100 µM
2  CC1(C)OC2COC3(CNO)OC(C)(C)OC3C2O1 (stereo unspecified)            > 100 µM
3                    CCSc1nc(N)c2cn[nH]c2n1             59.6 µM

Recorded result, CC(CC(=O)Nc1ccc(NC(=O)CC(C)N=NC(N)=S)cc1)N=NC(N)=S (stereo unspecified) , TGI: > 100 µM

Recorded result, C=CCSc1nc2ccccc2c(=O)n1Cc1ccco1 , TGI: > 100 µM

Recorded result, CCCCCCCCCCCCCCCCCCNC(=O)[C@H]1CSC(c2cccs2)N1 (stereo partly specified) , TGI: 1.98 µM

----------
System: SF-539 CNS
Test: NCI tumour cell line growth inhibition, 48 h
# TGI per entry

> print(dat)
                                   molecule  experimental.value
1  O=C1/C(=C\c2cccc(Oc3ccccc3)c2)S(=O)(=O)C(c2ccccc2)N1Cc1ccccc1 (stereo not given)            > 100 µM
2  COc1cc(C2SCC(=O)N2c2ccc(NC(=O)c3ccc(N4C(=O)CSC4c4cc(OC)c(OC)c(OC)c4)cc3)cc2)cc(OC)c1OC (stereo not given)            > 100 µM
3     Cc1ccccc1Nc1nc2c(s1)C(=O)c1ccccc1C2=O             12.7 µM
4  CS(=O)(=O)OCCn1c(=O)n(CCOS(C)(=O)=O)c(=O)n(CCOS(C)(=O)=O)c1=O            > 100 µM
5  CCCCCCCCCCCCCC(=O)OCC1OC(=O)CC1O (stereo not given)            > 100 µM

Recorded result, N#CCCN(CCC#N)c1ccc(/C=C2\N=C(c3ccccc3)N(c3ccc(Cl)cc3)C2=O)cc1 , TGI: > 100 µM

Recorded result, CC1(C)OC2COC3(CNO)OC(C)(C)OC3C2O1 (stereo not given) , TGI: > 100 µM

Recorded result, O=C1c2cccnc2-c2nc(-c3ccncc3)cc3c2c1nc1ccccc13 , TGI: 13.6 µM

Recorded result, C=CCNC(=S)/N=C/c1c(O)c2ccccc2oc1=O , TGI: > 100 µM

Recorded result, O=C(c1ccc2ccccc2c1)c1c(C(F)(F)F)n([O-])c2ccc(Cl)cc2[n+]1=O , TGI: 2.92 µM

----------
System: IGROV1 ovarian
Experiment: NCI tumour cell line growth inhibition, 48 h; in the data active = GI50 below about 0.43 µM; inactive = the rest
Can you answer with just one of these options? active, inactive

> print(dat)
                                   compound  measurement.target  assigned.class
1  COc1cc([N+](=O)[O-])c(OC)cc1-c1nc2sc(Cl)cn2c1/C=N/Nc1ccccn1      IGROV1 ovarian        inactive
2  CCCCCCCCCCCC[n+]1ccccc1 (tested in a mixture with another compound)      IGROV1 ovarian        inactive

Enquiry: Just curious, what result did c1ccc2nc3c(cc4ccccn43)nc2c1 get here?
Return: inactive

Enquiry: Just curious, what result did Cn1c([N+](=O)[O-])cnc1/C=C1\Oc2cc(Cl)ccc2C1=O get here?
Return: inactive

Enquiry: Just curious, what result did CNC(=O)c1cc2c(Oc3ccc(NC(=O)C4(C(=O)Nc5ccc(F)cc5)CC4)cc3)ccnc2cc1OC get here?
Return: inactive

----------
System: MOLT-4 leukemia
Assay: NCI tumour cell line growth inhibition, 48 h
Property Name: TGI (µM)
Just the number in µM, nothing appended.

Compound	Measurement Target	TGI (µM)
O=c1cc(N=P(c2ccccc2)(c2ccccc2)c2ccccc2)n(-c2ccccc2)c(=O)n1-c1ccccc1	MOLT-4 leukemia	22

Recorded result, C(=N\NC1=NCCCN1)/c1ccc2ccccc2c1 , TGI: 5.02

----------
Test system: HOP-92 NSCLC
Test: NCI tumour cell line growth inhibition, 48 h
Property Name: GI50

Some compounds with recorded GI50:
> print(dat)
                                    compound  experimental.value
 1  CN(C)Cc1c[nH]c2c(NCCN)c3c(c(NCCN)c12)C(=O)c1ccccc1C3=O             1530 nM
 2  CCC(=C(c1ccc(OCCCN(C)C)cc1)c1ccc(OCCCN(C)C)cc1)c1ccc(Cl)cc1              945 nM
 3  CCOC1Oc2ccccc2-c2oc(=O)c(Sc3ccc(C)cc3)cc21 (stereo not drawn)            10800 nM
 4        COc1ccccc1/C=C/C(=O)/C=C/c1ccccc1O             1780 nM
 5  C[n+]1c2ccccc2cc2c(CNC(CCCN=C(N)N)C(=O)O)cccc21 (stereo not drawn)              327 nM
 6  O=C(O)CCC(NC(=S)S)C(=O)O.[Na+].[Zn+2] (stereo not drawn)          > 50000 nM
 7  O=S(=O)(CCOCc1ccc(-c2ccc3ncnc(Nc4ccc(OCc5cccc(F)c5)c(Cl)c4)c3c2)o1)c1ccccc1          > 25000 nM
 8  CCCCCCCCCCN=C(c1ccc(N(C)C)cc1)c1ccc(N(C)C)cc1             1920 nM
 9  CC(=O)[O-].CC(=O)[O-].CC(=O)[O-].CC(=O)[O-].[Mo+2].[Mo+2]            39900 nM
10  C=C1CC2(OC1=O)C(=O)N(CCCN1C(=O)C3(CC(=C)C(=O)O3)c3ccccc31)c1ccccc12 (stereo not drawn)             1330 nM

Recorded result, CCCCCCCCCCCCCCCCCCNC(=O)[C@H]1CSC(c2cccs2)N1 (stereo partly drawn) , GI50: 2380 nM

Recorded result, COc1cc2c(cc1-c1c(C)noc1C)cc(C)c(=O)n2Cc1ccccn1 , GI50: 473 nM

Recorded result, c1ccc(Cn2cnc3ccc(-c4nc(-c5ccc6c(c5)ncn6C5CCCCC5)cn5ccnc45)cc32)cc1 , GI50: 1250 nM

----------
Tested on: SF-268 CNS
Test: NCI tumour cell line growth inhibition, 48 h
# TGI per entry

Recorded result, CCOc1cc(C2CC(c3ccc(NS(=O)(=O)c4cc([N+](=O)[O-])ccc4C)cc3)=NN2C(=O)c2ccccc2)ccc1O (stereo not given) , TGI: > 100 µM

----------
Tested on: SF-268 CNS
Experiment: NCI tumour cell line growth inhibition, 48 h
Property Name: GI50

Some compounds with recorded GI50:
> print(dat)
                                   compound  experimental.value
1  O=C1c2cccnc2-c2nc(-c3ccncc3)cc3c2c1nc1ccccc13             15.1 µM
2  CCOC1Oc2ccccc2-c2oc(=O)c(Sc3ccc(C)cc3)cc21 (stereo not given)             27.9 µM
3  CCCCCCCCCCN=C(c1ccc(N(C)C)cc1)c1ccc(N(C)C)cc1              3.4 µM

With those in mind, consider the next compound.
Recorded result, OB1OCc2cc(/C=C/c3cccc(C(F)(F)F)c3)ccc21 , GI50: 0.564 µM

----------
Tested on: OVCAR-5 ovarian
Test: NCI tumour cell line growth inhibition, 48 h
# GI50 per entry

Some molecules with recorded GI50:
> print(dat)
                                   molecule  experimental.value
1      O=C1C(Cl)=C(Nc2ccccc2)C(=O)c2ccccc21             1940 nM
2  C=C(CN1CCc2ccccc2C1)c1ccc(C(=O)Nc2ccccc2N)cc1             2640 nM
3         Cc1ccc2nc3c(Cl)c(C)c(=O)cc-3sc2c1            73700 nM
4  COc1ccc2cc(-c3ccc(-c4ccc(C(=N)N)s4)s3)ccc2c1             2110 nM
5  C=C1CC2(OC1=O)C(=O)N(CCCN1C(=O)C3(CC(=C)C(=O)O3)c3ccccc31)c1ccccc12 (stereo unspecified)             2070 nM

With those in mind, consider the next molecule.
Recorded result, COc1ccc(/C=C2/CCc3cc4ccc(OC)cc4[o+]c32)c(O)c1 , GI50: 17200 nM

----------
# TGI per entry
System: SW-620 colon
Assay: NCI tumour cell line growth inhibition, 48 h

Molecule	Measurement Target	TGI
C[C@H](Cn1ncnn1)Nc1ncc2cc(Oc3ccc(F)cc3F)c(=O)n(C)c2n1	SW-620 colon	> 25 µM
COc1cc([N+](=O)[O-])c(OC)cc1-c1nc2sc(Cl)cn2c1/C=N/Nc1ccccn1	SW-620 colon	> 50 µM
CC1CC[C@@]2(OC1)OC1C[C@H]3[C@@H]4CC[C@H]5CC(OC6OC(CO)C(OC7OC(CO)C(O)C(O)C7OC7OC(CO)C(O)C(O)C7O)C(O)C6O)CCC5(C)[C@H]4CCC3(C)C1[C@@H]2C (some centres undefined)	SW-620 colon	1.94 µM

With those in mind, consider the next molecule.
Recorded result, CC1=C2C(=O)c3ccccc3C2=C(C)S(=O)(=O)O1 , TGI: > 10 µM
